biological target: His-His-(EK)-hsBCLXL(2-197)[N197C] (Homo sapiens (Human), UniProt Q07817, N197C); experiment: Fluorescence quenching assay; settings: 1 nM Cy5-labelled protein, 400 nM PUMA peptide, 2 hours at 23° C.; KI determined from IC50
Sequence (Q07817 2-197 N197C): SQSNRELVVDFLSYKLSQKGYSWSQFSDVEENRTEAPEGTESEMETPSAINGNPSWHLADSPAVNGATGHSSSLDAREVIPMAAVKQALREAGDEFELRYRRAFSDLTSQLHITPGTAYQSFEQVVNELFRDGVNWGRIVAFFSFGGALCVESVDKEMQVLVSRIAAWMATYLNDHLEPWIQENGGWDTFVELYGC
pKi: −log10 of the molar value.
PARAMETER MEASURED: pKi

> print(dat)
                               smiles.input  parameter.measured  recorded.number
1  Cc1c(Nc2nc3ccccc3s2)nnc2c1CCCN2c1ccc(-c2cnn(CC34CC5(C)CC(C)(C3)CC(OCCN3CCNCC3)(C5)C4)c2C)c(C(=O)O)n1                 pKi            11.85
2  Cc1c(Nc2nc3ccccc3s2)nnc2c1CCCN2c1nc(C(=O)O)c(CCCOc2ccc(C#CCN3CCOCC3)cc2F)s1                 pKi            11.05
3  Cc1c(Nc2nc3ccccc3s2)nnc2c1CCCN2c1nc(C(=O)O)c(CCCOc2ccc(C#CCN3CCC4(CC3)CNC(=O)C4)cc2F)s1                 pKi            11.32
4  CCN(CC)CC#Cc1ccc(OCCCc2sc(N3CCCc4c3nnc(Nc3nc5ccccc5s3)c4C)nc2C(=O)O)c(F)c1                 pKi            10.36
5  Cc1c(Nc2nc3ccccc3s2)nnc2c1CCCN2c1nc(C(=O)O)c(CCCOc2ccc(C#CCNCC[C@H](O)CO)cc2F)s1                 pKi            11.33
6  Cc1c(Nc2nc3ccccc3s2)nnc2c1CCCN2c1nc(C(=O)O)c(CCCOc2ccc(C#CCN(C)C)cc2C(F)(F)F)s1                 pKi            10.24
7  Cc1c(Nc2nc3ccccc3s2)nnc2c1CCCN2c1ccc(-c2cnn(CC34CC5(C)CC(C)(C3)CC(OCCN3CCCCCC3)(C5)C4)c2C)c(C(=O)O)n1                 pKi            11.74
